# PROTOCOL DETAILS: log P by HPLC on a reversed-phase column (C 18), EEC Directive 79/831 Annex V.A8
# Format: physicochemical
# REPORTED CONDITIONS: reversed-phase HPLC column (C 18); acidic range, pH 2.7; value in preparation example text; read-out: log P (acidic)
chromatographic logP: recorded values
# respond with the number and nothing more

> print(dat)
                                  compound          test.readout  measurement
1  O=C(O)c1nc2cc(C(F)(F)F)ccn2c1Cl [III-1]  chromatographic logP          1.5

Here's the next entry for you.
Value of chromatographic logP reported for the compound CCS(=O)(=O)c1c(C(=O)O)nc2ccccn12 [XXIII-1] is 0.54
